System: Rattus norvegicus
Assay: Antiinflammatory activity in sc dosed Albino rat assessed as protection against carrageenan-induced paw edema measured 4 hrs after carrageenan challenge
Format: functional
reported endpoint: Activity (%)
# number only, unit % dropped from output

// solved cases for Activity follow
> print(dat)
                                   molecule  target.or.test.system  assay.result
1  Cc1ccc(-c2cc(C(F)(F)F)nn2-c2ccc(S(N)(=O)=O)cc2)cc1 [CELECOXIB]      Rattus norvegicus          77.5
2  COc1ccc2c(c1)c(CC(=O)O)c(C)n2C(=O)c1ccc(Cl)cc1 [INDOMETHACIN]      Rattus norvegicus          74.4
3           O=C1CCC(CCc2ccc3c(c2)OCCO3)=NN1      Rattus norvegicus         61.22

In: Which measured Activity value corresponds to "O=C1CCC(CCc2ccc(-c3ccccc3)cc2)=NN1" ?
Out: 58.16

---

Test system: Rattus norvegicus
Assay: Toxicity in Albino rat assessed as gastric-ulcerogenic effect at 30 uM/kg, po twice daily for 3 days
Type: organism-based
Settings: in vivo, 72 h, 30 µM/kg per day
Let's look at some molecules and their measured Activity.
Please make sure the unit comes right after the number.

// solved cases for Activity follow
> print(dat)
                                   molecule  reported.endpoint  assay.result
1  Cc1ccc(-c2cc(C(F)(F)F)nn2-c2ccc(S(N)(=O)=O)cc2)cc1 [CELECOXIB]           Activity            0%
2    CN1N=C(/C=C/c2ccc(-c3ccccc3)cc2)CCC1=O           Activity           20%

In: Which measured Activity value corresponds to "O=C1CCC(/C=C/c2ccc(-c3ccccc3)cc2)=NN1" ?
Out: 10%

In: Also, "O=C1CCC(/C=C/c2ccc3c(c2)OCCO3)=NN1" please.
Out: 0%

In: Also, "O=C1CCC(CCc2ccc3c(c2)OCCO3)=NN1" please.
Out: 0%

In: Also, "O=C1CCC(CCc2ccc(-c3ccccc3)cc2)=NN1" please.
Out: 10%

In: Also, "O=C1CCC(/C=C/c2ccc(-c3ccccc3)cc2)=NN1c1ccccc1" please.
Out: 10%

In: Also, COc1ccc2c(c1)c(CC(=O)O)c(C)n2C(=O)c1ccc(Cl)cc1 [INDOMETHACIN] please.
Out: 100%

In: Also, "O=C1CCC(/C=C/c2ccc(Oc3ccccc3)cc2)=NN1" please.
Out: 0%

In: Also, "CN1N=C(/C=C/c2ccc3c(c2)OCO3)CCC1=O" please.
Out: 10%

In: Also, "CN1N=C(CCc2ccc(-c3ccccc3)cc2)CCC1=O" please.
Out: 0%
